src = PubChem BioAssay (NCI)

Test system: DMS 114 small cell lung
EXPERIMENTAL_PROTOCOL: NCI tumour cell line growth inhibition, 48 h
# TGI annotations

// solved cases for TGI follow
1. C=C(c1ccccc1)C1(O)CCCCC1N (centres undefined): > 100 µM
2. CCOC(=O)NC(=O)c1cn(CCN2CCN(C(=O)NCCCCCCNC(=O)N3CCN(CCn4cc(C(=O)NC(=O)OCC)c(=O)[nH]c4=O)CC3)CC2)c(=O)[nH]c1=O: > 100 µM
3. C[N+](C)(C)CCC(=O)CC[N+](C)(C)C: 44.2 µM

Task item: Param readout= TGI; system= DMS 114 small cell lung; entry= "Cc1cc([NH-])c([NH-])cc1C.[Cl][Pt+2][Cl]" ; returns value.
Reply: 32.3 µM

Task item: Param readout= TGI; system= DMS 114 small cell lung; entry= O=C1CC(CC(=O)C2CCCCC2=O)C(=O)N1 (centres undefined) ; returns value.
Reply: > 100 µM

Task item: Param readout= TGI; system= DMS 114 small cell lung; entry= COC(=O)/C(=N\NC(C)(C)C)C(C(=O)OC)C(=O)C(=O)Nc1cc(Cl)ccc1Cl (centres undefined) ; returns value.
Reply: > 100 µM

Task item: Param readout= TGI; system= DMS 114 small cell lung; entry= O=C1Nc2ccccc2C1(O)C/C(=N/O)c1ccc2ccccc2c1 (centres undefined) ; returns value.
Reply: > 100 µM

Task item: Param readout= TGI; system= DMS 114 small cell lung; entry= CN(C(=O)/C=C/c1ccccc1)C1C2CN3CCC(O2)C13 (centres undefined) ; returns value.
Reply: > 100 µM

Task item: Param readout= TGI; system= DMS 114 small cell lung; entry= "CC[O-].CC[O-].O=C([CH-]C(=O)c1ccccc1)CCCCCCCCC(=O)[CH-]C(=O)c1ccccc1.[Ti+4]" ; returns value.
Reply: > 100 µM
